Tested on: COV318 cells
Test: Inhibition of cell proliferation (CyQUANT Direct), COV318
Format: cell-based, human
Conditions: Homo sapiens, COV318, 72-hour
Description: HCC70 and MB453 cells are cell lines derived from human triple negative breast cancer COV318 and COV504 cells are cell lines derived from human ovarian cancer. Representative compounds of the invention were tested at different concentrations (from 4 μM to 126.4 pM; 0.5 log serial dilutions) for their ability to inhibit the proliferation of each of these cell lines. […]
// reported IC50 for each item listed

CO[C@@H]1CCNC[C@H]1Nc1ncc(C(F)(F)F)c(-c2c[nH]c3cc(-c4c(C)noc4C)ccc23)n1 (single isomer, unassigned) ... 100 to 500 nM
Cc1noc(C)c1-c1ccc2c(-c3nc(N[C@@H]4CNCC(C)(C)C4)ncc3C(F)(F)F)c[nH]c2n1 ... < 100 nM
CNC(=O)[C@H]1CNC[C@@H](Nc2ncc(C(F)(F)F)c(-c3c[nH]c4nc(-c5c(C)noc5C)ccc34)n2)C1 ... 500 to 1000 nM
Cc1nscc1-c1ccc2c(-c3nc(N[C@H]4CCCNC4)ncc3C(F)(F)F)c[nH]c2n1 ... < 100 nM
Cc1noc(C)c1-c1ccc2c(-c3nc(N[C@H]4CCCNC4)ncc3C(F)(F)F)n[nH]c2n1 ... 100 to 500 nM

// query I am curious: what IC50 value has been reported for CO[C@@H]1CCNC[C@H]1Nc1ncc(C(F)(F)F)c(-c2c[nH]c3nc(-c4c(C)noc4C)ccc23)n1 (single isomer, unassigned) ?
// result 500 to 1000 nM

// query Name the reported IC50 value associated with the compound Cc1nnc(-c2ccc3c(-c4nc(N[C@H]5CC[C@H](C)NC5)ncc4C(F)(F)F)c[nH]c3n2)s1
// result > 1000 nM

* * *

System: COV318 cells
Test: Inhibition of cell proliferation (CyQUANT Direct), COV318
Type: cell-based, human
Details: Homo sapiens, COV318, 72-hour
Procedure: HCC70 and MB453 cells are cell lines derived from human triple negative breast cancer COV318 and COV504 cells are cell lines derived from human ovarian cancer. Representative compounds of the invention were tested at different concentrations (from 4 μM to 126.4 pM; 0.5 log serial dilutions) for their ability to inhibit the proliferation of each of these cell lines. […]
# IC50 values compiled below

// known answers, use as guide
C[C@@H]1CC[C@@H](Nc2ncc(C(F)(F)F)c(-c3c[nH]c4nc(-c5cnnn5C)ccc34)n2)CN1 [Compound 151] ... > 1000 nM
Cc1noc(C)c1-c1ccc2c(-c3nc(N[C@H]4CCCNC4)ncc3C(F)(F)F)n[nH]c2c1 [Compound 100] ... 100 to 500 nM
Cc1noc(C)c1-c1ccc2c(-c3nc(N[C@H]4CC[C@H](C)NC4)ncc3C(F)(F)F)c[nH]c2n1 [Compound 124] ... < 100 nM
C[C@H]1CC[C@H](Nc2ncc(C(F)(F)F)c(-c3c[nH]c4nc(-c5cnnn5C)ccc34)n2)CN1 [Compound 150] ... 100 to 500 nM
Cc1nocc1-c1ccc2c(-c3nc(N[C@H]4CCCNC4)ncc3C(F)(F)F)c[nH]c2n1 [Compound 132] ... < 100 nM

// query Given the molecule Cc1noc(C)c1-c1ccc2c(-c3nc(N[C@@H]4CNC[C@H](O)C4)ncc3C(F)(F)F)c[nH]c2c1 [Compound 105] , what is its reported IC50?
// result 500 to 1000 nM

// query Suppose we examine the molecule Cc1nc(-c2ccc3c(-c4nc(N[C@H]5CCCNC5)ncc4C(F)(F)F)c[nH]c3n2)no1 [Compound 139] ; what IC50 value has been reported?
// result > 1000 nM

// query Fill in: IC50 of Cc1noc(C)c1-c1cc2[nH]cc(-c3nc(N[C@H]4CCCNC4)ncc3C(F)(F)F)c2cc1F [Compound 134] is ___
// result < 100 nM

Data provenance: patent US11311542B2
